- Test system: MCF-7 (breast cancer)
- Assay overview: MTT cell viability assay, MCF-7
- Type: cell-based, human
- Protocol conditions: Homo sapiens, MCF7; MTT, 72 h
Readout: IC50 (µM)
One number for each entry, in µM.

{"Molecule": "Cc1cc(S(=O)(=O)NC(N)=NN=C(C=Cc2ccccc2O)c2ccccc2)c(SCc2ccccc2Cl)cc1Cl [Compound 24]", "U": "µM", "IC50": 12}

Field: IC50. Fill in for each record below.
1. Cc1cccc(CSc2cc(Cl)c(C)cc2S(=O)(=O)NC(N)=NN=C(C=Cc2ccc(O)cc2)c2ccccc2)c1 [Compound 17]
2. Cc1cc(S(=O)(=O)NC(N)=NN=C(C=Cc2ccc(O)cc2)c2ccccc2)c(SCc2ccccc2)cc1Cl [Compound 10]
3. Cc1cc(S(=O)(=O)NC(N)=NN=C(C=Cc2ccc(O)cc2)c2ccccc2)c(SCc2ccccc2Cl)cc1Cl [Compound 25]
4. Cc1cc(S(=O)(=O)NC(N)=NN=C(C=Cc2ccccc2O)c2ccccc2)c(SCc2ccc(Cl)cc2)cc1Cl [Compound 29]

Data returned:
1. 17
2. 15
3. 19
4. 19

Field: IC50. Fill in for each record below.
1. Cc1ccc(CSc2cc(Cl)c(C)cc2S(=O)(=O)NC(N)=NN=C(C=Cc2ccc(Cl)cc2)c2ccccc2)cc1 [Compound 22]
2. Cc1cc(S(=O)(=O)NC(N)=NN=C(C=Cc2ccc([N+](=O)[O-])cc2)c2ccccc2)c(SCc2ccc(Cl)cc2)cc1Cl [Compound 33]

Data returned:
[193, 220]

* * *

- Tested on: HaCaT cells
- Assay overview: MTT assay with non-cancerous HaCaT cell line
- Format: cell-based
- Protocol conditions: Homo sapiens, HaCaT, 72 h
Rule for this label: satisfied means IC50 is less than 40 µM; not satisfied means IC50 is at least 40 µM.

{"Compound": "Cc1ccc(CSc2cc(Cl)c(C)cc2S(=O)(=O)NC(N)=NN=C(C=Cc2ccc(O)cc2)c2ccccc2)cc1 [Compound 20]", "Assay target": "HaCaT cells", "Qualitative label": "satisfied"}
{"Compound": "Cc1ccc(CSc2cc(Cl)c(C)cc2S(=O)(=O)NC(N)=NN=C(C=Cc2ccccc2O)c2ccccc2)cc1 [Compound 19]", "Assay target": "HaCaT cells", "Qualitative label": "satisfied"}

Data request: API: query returns whether the compound falls strictly under 40 µM in IC50. Query: Cc1cc(S(=O)(=O)NC(N)=NN=C(C=Cc2ccccc2O)c2ccccc2)c(SCc2ccc(Cl)cc2)cc1Cl [Compound 29]
Data returned: not satisfied

Data request: Then Cc1cc(S(=O)(=O)NC(N)=NN=C(C=Cc2ccc(O)cc2)c2ccccc2)c(SCc2cccc(Cl)c2)cc1Cl [Compound 27] ?
Data returned: satisfied

Data request: Then Cc1cc(S(=O)(=O)NC(N)=NN=C(C=Cc2ccccc2O)c2ccccc2)c(SCc2ccccc2C)cc1Cl [Compound 14] ?
Data returned: satisfied

Data request: Then Cc1cccc(CSc2cc(Cl)c(C)cc2S(=O)(=O)NC(N)=NN=C(C=Cc2ccc(O)cc2)c2ccccc2)c1 [Compound 17] ?
Data returned: satisfied

Data request: Then Cc1cc(S(=O)(=O)NC(N)=NN=C(C=Cc2ccccc2)c2ccccc2)c(SCc2ccc(Cl)cc2)cc1Cl [Compound 28] ?
Data returned: not satisfied

* * *

- Test system: MCF-7 (breast cancer)
- Assay overview: MTT cell viability assay, MCF-7
- Type: cell-based, human
- Protocol conditions: Homo sapiens, MCF7; MTT, 72 h
Readout: pIC50
Give bare numbers, as −log10 of the molar value.

{"Compound smiles": "Cc1ccc(CSc2cc(Cl)c(C)cc2S(=O)(=O)NC(N)=NN=C(C=Cc2ccc(O)cc2)c2ccccc2)cc1", "Assay target": "MCF-7 (breast cancer)", "Assay result": 4.82}

Field: pIC50. Fill in for each record below.
1. Cc1cc(S(=O)(=O)NC(N)=NN=C(C=Cc2ccccc2)c2ccccc2)c(SCc2ccc(Cl)cc2)cc1Cl
2. Cc1cc(S(=O)(=O)NC(N)=NN=C(C=Cc2ccc(Cl)cc2)c2ccccc2)c(SCc2ccccc2)cc1Cl
3. Cc1cc(S(=O)(=O)NC(N)=NN=C(C=Cc2ccc(O)cc2)c2ccccc2)c(SCc2cccc(Cl)c2)cc1Cl
4. COc1ccc(C=CC(=NN=C(N)NS(=O)(=O)c2cc(C)c(Cl)cc2SCc2ccccc2)c2ccccc2)cc1
5. Cc1ccc(CSc2cc(Cl)c(C)cc2S(=O)(=O)NC(=N)N/N=C(/C=C/c2ccccc2)c2ccccc2)cc1
6. Cc1cc(S(=O)(=O)NC(N)=NN=C(C=Cc2ccc(O)cc2)c2ccccc2)c(SCc2ccc(Cl)cc2)cc1Cl

Data returned:
1: 3.64; 2: 3.68; 3: 4.80; 4: 3.48; 5: 3.59; 6: 4.74
